tested on: soybean (Glycine max); test: Test B pre-/postemergence; format: in vivo; design: key: 0 is no effect; 10 is complete control; settings: Rate 125 g/ha, Postemergence
METRIC_NAME: Soybean plant response rating
// no unit, no text: just the number

# annotated cases, reported Soybean plant response rating shown
> print(dat)
                                smiles.data                 system  assay.result
1  COc1cnc(-n2ccc(C(F)(F)F)n2)nc1Cc1cccc(C(F)(F)F)c1  soybean (Glycine max)             0
2  CCc1cnc(-n2ccc(C(F)(F)F)n2)nc1C(=O)c1cccc(C#N)c1  soybean (Glycine max)             2
3  CCc1cnc(-n2ccc(C(F)(F)F)n2)nc1Cc1cccc(OC(F)(F)F)c1  soybean (Glycine max)             8
4    Cc1cnc(-c2ccc(Cl)cc2)nc1Cc1cccc(C#N)c1  soybean (Glycine max)             2
5  Cc1cnc(-n2ccc(C(F)(F)C(F)(F)F)n2)nc1C(=O)c1cccc(C(F)(F)F)c1  soybean (Glycine max)             5

Query :: Bench note: what Soybean plant response rating did "O=C(c1cccc(C(F)(F)F)c1)c1ccnc(-c2ccc(F)cc2F)n1" show?
Result :: 0

Query :: So what's the measured Soybean plant response rating for this one? "CCc1cnc(-n2cnc(C(F)(F)F)n2)nc1Cc1cccc(OC(F)(F)F)c1"
Result :: 7

Query :: Please look up its Soybean plant response rating: "Cc1cnc(-c2ccc(C(F)(F)F)cc2)nc1C(=O)c1cccc(C(F)(F)F)c1"
Result :: 9

Query :: // returns reported Soybean plant response rating for input "CCc1cnc(-c2ccc(C(F)(F)F)cc2)nc1Cc1cccc(OC(F)(F)F)c1"
Result :: 7
